# procedure-summary: E. coli acrAB mutant growth effects, primary screen, E. coli filamentation inducers, strain DRC39, OD650, 24 h (AID 1178);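 note: growth measured as culture turbidity by optical density at 650 nm; test concentration not given here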
# applied-conditions: higher = more signal, called active from +8 up or from −8 down
Below, each of the molecules is paired with its reported z-score value.
Respond with the number and no other words.

>>> value_observed("COc1ccc(C#Cc2ccc3c(c2)[C@]2(C(=O)N3)[C@H](C(=O)NC[C@H](O)c3ccccc3)[C@H]3C(=O)O[C@H](c4ccccc4)[C@H](c4ccccc4)N3[C@@H]2c2ccc(O)cc2)cc1")
0.0945
>>> value_observed("Cc1ccc(N2C(=O)c3ccccc3[C@@H](C(=O)NC3CC3)[C@@H]2c2ccc(CO)cc2)nc1")
0.659
>>> value_observed("C=CC(=C)[C@H]1Oc2ccccc2S(=O)(=O)N2CCC[C@@H]12")
-0.553
>>> value_observed("C=CCOC(=O)[C@H]1[C@@H]2C(=O)O[C@@H](c3ccccc3)[C@@H](c3ccccc3)N2[C@@H](c2ccc(OCCOC(=O)[C@H]3C[C@H]4C(=O)N[C@@H](CCCCN(C)C)C(=O)N4[C@H]3c3ccc(O)cc3)cc2)[C@]12C(=O)Nc1ccc(I)cc12")
-0.624
>>> value_observed("COC(=O)[C@@]1(CCS(=O)(=O)c2ccccc2)N=C(c2ccc(OCCCO)cc2)O[C@H]1c1ccccc1CN=[N+]=[N-]")
0.163

--- query ---
Which z-score is listed for COC(=O)[C@@]1(Cc2ccccc2)[C@H]2c3cc(C(=O)N4CCCC4)n(Cc4ccc(S(C)(=O)=O)cc4)c3C[C@H]2CN1C(=O)c1ccccc1 ?
-1.33
